Measurement target: von Willebrand Factor (vWF) (UniProt P04275 P04275:764-2813)
Procedure text: filter; DPBS with Ca/Mg, 0.1 mg/mL BSA, 24 C
Measurement context: label: 5'-32P
Readout label: Kd (nM)
Please give a number only; it is taken to be in nM.

Ask | GET /values?readout=Kd&item= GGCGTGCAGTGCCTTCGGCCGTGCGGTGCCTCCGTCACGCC (ssDNA, 3'-idT (last t of SEQ)) [ARC1172 w/3T]
Reply | 2

Each recorded value in this set is attributed to patent US20070066551.
